Assay: clinical
Settings: human, in vivo, mean plasma terminal elimination half-life
Property Name: half-life

[in] Recorded half-life for CCO/N=C(\C(=O)N[C@@H]1C(=O)N2C(C(=O)[O-])=C(Sc3nc(-c4cc[n+](C)cc4)cs3)CS[C@H]12)c1nsc(N)n1 [Ceftaroline, ceftaroline] , please?
[out] ~150 min
